system: A498 renal; assay: NCI tumour cell line growth inhibition, 48 h
Let's look at some compounds and their measured TGI.

COMPOUND	BOUND SIGN	TGI, µM
O=C(COC(=O)c1ccccc1)c1ccc(Br)cc1	=	29.5
COC(=O)CC1(O)C(C=C(C)C)C(C(=O)OC)C(=O)C(C(=O)OC)C1C(=O)OC (centres undefined)	>	100
O=C(N/N=C/c1ccc(O)cc1O)c1ccc(Nc2ccnc(C(F)(F)F)c2)cc1	=	97.4
CN(C)CCCNC(=O)CNC(=O)c1cc(NC(=O)c2cc(NC(=O)c3cc(NC(=O)CCNC(=O)c4cc(NC(=O)c5cc(NC(=O)c6nccn6C)cn5C)cn4C)cn3C)cn2C)cn1C	>	100
CC1(C)SC2C(NC(=O)Cc3ccccc3)C(=O)N2C1C(=O)O (centres undefined)	>	100
COc1ccc(C2=C(c3cn(C)c4ccccc34)C(=O)NC2=O)cc1OC	=	8.95
CC1(C)N=C(N)N=C(N)N1c1ccc(CCCCc2ccc(Cl)cc2Cl)cc1	=	28.8
O=C(O)c1ccc(NS(=O)(=O)c2cccc3cccnc23)cc1	>	100
FC(F)(F)C1(C(F)(F)F)OC(Cl)(Cl)C(Cl)(Cl)O1	>	10

###

Entries annotated with measured TGI
system: UO-31 renal; test: NCI tumour cell line growth inhibition, 48 h

COMPOUND	ASSAY TARGET	TGI
COc1ncc(C#CC(=O)c2ccccc2OC)c(OC)n1	UO-31 renal	2.97 µM
N#CC(C#N)=CN1CCN(C(=O)c2ccccc2)C1=S	UO-31 renal	47.3 µM
CCOC(=O)c1c(NC(=O)c2ccccc2)sc2c1CCC2	UO-31 renal	> 100 µM
C(/C=N/NC1=NCCN1)=N\NC1=NCCN1	UO-31 renal	> 100 µM
C/C(=N/NC(=S)N(Cc1ccccn1)Cc1ccccn1)c1cnccn1	UO-31 renal	0.525 µM
COC(=O)c1ccc(NCC2=CC(=O)c3ccccc3C2=O)cc1	UO-31 renal	35.8 µM
CC1OC(OC2C(Oc3cc(O)c4c(=O)cc(-c5ccc(O)cc5)oc4c3)OC(CO)C(O)C2O)C(O)C(O)C1O (configuration not stated)	UO-31 renal	> 100 µM

###

Below, each of the molecules is paired with its reported TGI value.
test system: SNB-19 CNS; test: NCI tumour cell line growth inhibition, 48 h

MOLECULE	TGI
CCCN(CCC)C(=O)Cc1c2n(c3ccccc13)Cc1ccccc1-2	> 100 µM
N#CSCC1CC(O)(c2ccccc2)C(c2ccccc2)C(c2ccc(F)cc2)O1 (stereo not given)	> 70.3 µM
Cc1cc2c(C(N)=O)cccc2n1-c1nc2c(c(NCc3ccccc3)n1)CCCN2	0.765 µM
Cc1ccc(NNc2cc(=O)[nH]c(=O)[nH]2)cc1Cl	> 100 µM
COc1ccc(CN=C2Nc3ccncc3S(=O)(=O)N2c2ccccc2)cc1	> 100 µM
CC1(C)N=C(N)N=C(N)N1c1cccc(CCCCc2ccc(S(=O)(=O)F)cc2Cl)c1	20.6 µM
CCCCCC(/C=N/NC(N)=S)C(O)(C(F)(F)F)C(F)(F)F (stereo not given)	> 10 µM
CCOC(=O)C1(Cc2ccccc2)CCN(C(=O)c2ccccc2)C2C1C2(Cl)Cl (stereo not given)	> 100 µM
C/C=C/OC1C(C2COC(C)(C)O2)OC2OC(C)(C)OC21 (stereo not given)	> 100 µM
O=c1[nH]nc2c3c(cccc13)NC(CN1Cc3ccccc3C1)=N2	> 100 µM
CC(=O)O[C@@H]1CC(C)C2CC2C2=C(C(O)OC2O)[C@@H]1C(C)CCC=C(C)C (stereo not given in full)	99.5 µM
CC1=NN(C(=O)CC(=O)Nc2cccc(Cl)c2)C(=O)C1N=Nc1ccc(S(=O)(=O)c2ccc(N=NC3C(=O)N(C(=O)CC(=O)Nc4cccc(Cl)c4)N=C3C)cc2)cc1 (stereo not given)	> 100 µM
Cc1nn2c(/C=C3/C(=O)Nc4ccccc43)c(-c3ccc(Cl)cc3)nc2s1	32.6 µM
CSCCCNC(=O)c1csc([C@@H](CSC)NC(=O)CCNC(=O)[C@@H](NC(=O)OCC(Br)(Br)Br)C(C)O)n1 (stereo not given in full)	> 100 µM
O=[N+]([O-])/C(C(Cl)=C(Cl)Cl)=C(/Sc1ccccc1)N1CCOCC1	20.2 µM
Cc1ccc(C2=Nc3ccccc3NC(=O)C2)cc1	> 100 µM
NC1CCC[C@@H](O)[C@H]1O (stereo not given in full)	> 100 µM
COc1ccc(C2c3cc4c(cc3OC(N3CCOCC3)C2C)OCO4)c(OC)c1 (stereo not given)	28.9 µM
O=C(N/N=C/c1ccc(O)cc1O)c1ccc(Nc2ccnc(C(F)(F)F)c2)cc1	> 56.5 µM
COC(=O)c1cc(C)ccc1CC(Cc1ccccc1C)C(=O)OC (stereo not given)	> 100 µM
Cc1ccc(NC2=C(Sc3ccc(Cl)cc3)C(=O)N(Cc3ccccc3)C2=O)cc1Cl	28.9 µM
O=C(c1ccco1)N1CCN(C(=O)c2ccco2)C1=S	> 79.5 µM
COc1cccc2c1C(=O)c1ccc3cc(CO)cc(O)c3c1C2=O	5.85 µM
C=C1C(C[C@@H]2O[C@H]3C[C@H]4O[C@@]5(C[C@@H]6O[C@]7(C[C@H](C)[C@@H]8O[C@@H]9CC(C(O)CO)O[C@@H]9C[C@@H]8O7)C[C@H](C)[C@@H]6O5)C[C@H]4O[C@H]3[C@H](C)[C@H]2O)O[C@@H](CC[C@@H]2O[C@@H](CC[C@@]34CC5O[C@H]6C(O[C@H]7CC[C@H](CC(=O)OC)O[C@@H]7[C@@H]6O3)[C@H]5O4)CC2=C)C[C@H]1C (stereo not given in full)	> 1 µM
CSc1nc(-c2cc3c(c(SC)n2)CCC3)cc2c1CCC2	> 100 µM
CCOc1cc2ncc(C#N)c(Nc3ccc(F)c(Cl)c3)c2cc1NC(=O)/C=C/CN(C)C	> 10 µM
CNC1NC(=O)c2ccccc2N1Cc1ccc(F)cc1 (stereo not given)	> 100 µM
N#C[C@](CO)(NC(=O)OCc1ccccc1)C(F)F	> 100 µM
OCC1CCCCN1Cc1nc2ccc(Cl)cc2[nH]1 (stereo not given)	> 100 µM
c1cncc(C(Nc2cccc3cccnc23)Nc2cccc3cccnc23)c1	> 100 µM
CC1C=C(NCC2(CO)CCC2)NC(N)=N1 (stereo not given)	> 100 µM
O=[N+]([O-])c1cc(Br)cc2c1[nH]c1ccc(Br)cc12	70.8 µM
CC(C)(N=NC(C)(C)C1=NCCN1)C1=NCCN1	> 100 µM
CC(=O)Oc1cccc2c1C(=O)C(Br)(Br)CCC2	25.2 µM
c1ccc2c(Cc3c[nH]c4ccccc34)c[nH]c2c1	44.4 µM
COc1ccc(C(=O)/C=C/c2cc(C(=O)c3cc(OC)c(OC)c(OC)c3)ccc2OC)cc1	> 100 µM
Cc1cc(N/N=C/c2nc(-c3ccccc3)oc2C)c2cc(Cl)ccc2n1	4.86 µM
CC(=O)OC[C@@H]1[C@H]2CC(=O)O[C@H]2C[C@H]1OC(C)=O	> 100 µM
COc1ccc(C2=C(c3cn(C)c4ccccc34)C(=O)NC2=O)cc1OC	> 25 µM
C/C=C/[C@@H]1O[C@H](CC#C[Si](C)(C)C)[C@@]2(C=O)C(C)=CC[C@H](C(C)C)[C@@H]12	62.3 µM

Entry source: PubChem BioAssay (NCI)
